# test_target: Histamine H3 receptor (Homo sapiens)
# Sequence (Q9Y5N1 whole entry): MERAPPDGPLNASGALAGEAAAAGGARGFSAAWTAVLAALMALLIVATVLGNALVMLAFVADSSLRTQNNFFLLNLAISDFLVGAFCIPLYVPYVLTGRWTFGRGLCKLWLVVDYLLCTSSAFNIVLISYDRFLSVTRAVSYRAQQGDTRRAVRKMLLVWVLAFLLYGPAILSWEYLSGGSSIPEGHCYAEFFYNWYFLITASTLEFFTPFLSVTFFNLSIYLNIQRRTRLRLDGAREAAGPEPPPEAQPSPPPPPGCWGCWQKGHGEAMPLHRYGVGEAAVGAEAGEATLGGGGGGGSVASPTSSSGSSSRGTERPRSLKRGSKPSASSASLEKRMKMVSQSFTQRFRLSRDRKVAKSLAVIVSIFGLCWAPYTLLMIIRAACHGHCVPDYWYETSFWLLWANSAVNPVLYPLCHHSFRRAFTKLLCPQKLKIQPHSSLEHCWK
# experiment_notes: Agonist activity at human H3R-Galphai2-Gbeta1gamma2-RGS4 expressed in Sf9 cells 0.1 nM to 1 mM by steady state GTPase activity assay
endpoint_name: EC50

record_smiles: Cc1nc(N)sc1CCCN/C(N)=N/C(=O)CCCCCCCCC(=O)/N=C(\N)NCCCc1c[nH]cn1
endpoint_name: EC50
meas_value: 2.88 nM
//
record_smiles: N/C(=N\C(=O)CCCCCCCCCCCCCCC(=O)/N=C(\N)NCCCc1c[nH]cn1)NCCCc1c[nH]cn1
endpoint_name: EC50
meas_value: > 1000 nM
//
record_smiles: N/C(=N\C(=O)CCCCCCCCC(=O)/N=C(\N)NCCCc1c[nH]cn1)NCCCc1c[nH]cn1
endpoint_name: EC50
meas_value: 1.78 nM
//
record_smiles: N=C(NCCCc1cnc[nH]1)NC(=O)CCCCCCCCCCCCCCCCCCCCC(=O)NC(N)=NCCCc1cnc[nH]1
endpoint_name: EC50
meas_value: 447 nM
//
record_smiles: N/C(=N\C(=O)CCCCC(=O)/N=C(\N)NCCCc1c[nH]cn1)NCCCc1c[nH]cn1
endpoint_name: EC50
meas_value: > 10000 nM
//
record_smiles: N/C(=N\C(=O)CCCCCCC(=O)/N=C(\N)NCCCc1c[nH]cn1)NCCCc1c[nH]cn1
endpoint_name: EC50
meas_value: 4.17 nM
